Kindly state GI50 for each of the entries shown.
# Test system: SNB-19
# METHOD_SUMMARY: NCI tumour cell line growth inhibition, 48 h
The source made the active and inactive calls. Rule as the data show it: active = GI50 up to about 1.1 µM and inactive = higher.

Could you tell me which GI50 is on file for Cc1ccc(S(=O)(=O)NC(=O)NCCc2ccc(O)c(O)c2)cc1 ?
> 100 µM (inactive)

Also check CC(=O)O[C@H]1CCC2[C@@H]3CCC4Nc5[nH]ncc5C[C@]4(C)C3CC[C@@]21C (stereo partly specified)
26.4 µM (inactive)

Item: COc1ccc(NC(=O)CC/C(CC(=O)c2ccco2)=N/NC(N)=S)cc1
> 100 µM (inactive)

How about this compound: COC(=O)c1ccccc1Nc1nc(-c2cccs2)nc2cc(OC)c(OC)cc12
33.1 µM (inactive)

Okay, and COc1cc(COC(=O)N(C)[C@@H](Cc2ccccc2)C(=O)O)c([N+](=O)[O-])cc1OC ?
> 100 µM (inactive)

Below is a list of compounds. For each, state its recorded GI50.
1. O=C(O)CCC(C(=O)O)N1C(=O)c2ccccc2C1=O (stereo unspecified)
2. NC(CCc1nc(-c2ccccc2)cs1)C(=O)O (stereo unspecified)
3. N#C/C(=C1\N=NC(N)=C(c2ccc(Cl)cc2)C1=O)c1ccc(Cl)cc1
4. CCCC(=O)NC1=C(Cl)C(=O)c2ccccc2C1=O
5. CSc1n[nH]c2c1c(C)nn2-c1ccccc1
6. CCN(CC)CC1CCCCN1CC(=O)N1c2ccccc2NC(=O)CC1C (stereo unspecified)

1. > 100 µM (inactive)
2. > 100 µM (inactive)
3. > 100 µM (inactive)
4. 6.89 µM (inactive)
5. > 100 µM (inactive)
6. > 100 µM (inactive)

----------
Could you please report measured GI50 for the items listed next?
# System: 786-0
# METHOD_SUMMARY: NCI tumour cell line growth inhibition, 48 h
Calls of active or inactive are those of the source. No stated cut-off is given here; in the data, active = GI50 up to about 1.1 µM and inactive = higher.

Could you tell me which GI50 is on file for C[C@H]1CC[P+](Cc2ccccc2)(c2ccccc2)C1 (stereo not given in full) ?
> 100 µM (inactive)

Answer for every listed entry: what is its GI50? The entries follow.
1. O=c1[nH]c2cc3cccnc3c(Cl)c2nc1C(F)(F)F
2. CC(=O)Nc1ccc(-c2cc(C(=O)O)c3cc4ccccc4cc3n2)cc1
3. NS(=O)(=O)c1ccc2c(c1)OCCOCCOCCOCCO2
4. COc1ccc(C2SCC(=O)N2c2ccc(-c3ccc(-n4c(-c5ccccc5)nc5ccccc5c4=O)cc3)cc2)cc1 (stereo not given)

72.4 µM (inactive)
> 100 µM (inactive)
> 100 µM (inactive)
36.1 µM (inactive)

----------
# System: NCI-H460
# METHOD_SUMMARY: NCI tumour cell line growth inhibition, 48 h
Calls of active or inactive are those of the source. Cut-off read from the data, not from the text of the source: active = GI50 up to about 1.1 µM and inactive = higher.
Give your call using only these classes: active, inactive

# outcome recorded in this test, key = Oc1ccc2ccccc2c1/N=N/c1ccccc1
inactive

Also O=C1CC(NC(=O)C(F)(F)F)c2c1csc2Br (stereo unspecified) , if possible.
inactive

---
What did the test return for CCN(CC)CC[n+]1ccc2c(C)c3[nH]c4ccc(O)cc4c3c(C)c2c1 ?
active

Next: C[n+]1cc(C(O)c2ccc3c(c2)OCO3)c2ccccc2c1 (stereo unspecified)
inactive

Item: O=C(OC[C@H]1C[C@H]2C(=O)CCC[C@H]2O1)c1ccccc1
inactive

Likewise for COC(=O)C(Cc1ccc2c(c1)CCC2)Cc1ccc2c(c1)CCC2 ?
inactive

COC(=O)C(C(=O)C(=O)Nc1nnc(S)[nH]1)c1csc(-n2nc(-c3ccccc3)cc2-c2ccccc2)n1 (stereo unspecified) ?
inactive

Field entry: O=C1C(N2CCN(c3ccccn3)CC2)=C(Cl)C(=O)c2ncccc21
inactive

Same question, COC(=O)c1ccccc1Nc1nc(-c2cccs2)nc2cc(OC)c(OC)cc12 this time
inactive

Likewise for COc1ccc2c3c1OC1C(=O)C=CC4(CC2)N(C)CCC314 (stereo unspecified) ?
inactive

Cool, now CC[C@H](C)[C@H]1NC(=O)[C@@H](NC(=O)[C@@H](CC(C)C)N(C)C(=O)C2CCCN2C(=O)[C@H](C)O)[C@@H](C)OC(=O)[C@H](Cc2ccc(OC)cc2)N(C)C(=O)[C@@H]2CCCN2C(=O)[C@H](CCCCNC(=O)OCc2ccccc2)NC(=O)[C@H](C)C(=O)[C@H](C(C)C)OC(=O)C[C@@H]1O (stereo partly specified)
inactive

Cn1nnnc1SC(F)(F)c1nc2ccccc2o1 , same question.
inactive

# iterate: CC1=C2C(=O)c3ccccc3C(=O)[C@H]2C[C@@H](N2CCCCCC2=O)O1
inactive

Please do the same for CCOC(=O)C1CC(=O)C=C2CCCCC21 (stereo unspecified) as well.
inactive

Then what about the molecule COC(=O)c1cc(NC(=O)Cc2c[nH]c3ccccc23)cn1C ?
inactive

Thanks! And COc1cccc(Nc2nc(C)c([N+](=O)[O-])c(Nc3cccc(OC)c3)n2)c1 ?
inactive

// query: COc1ccc2nc(-c3ccc(O)cc3)ccc2c1
inactive

Lookup COc1ccc(C(C#N)NC23CC4CC(CC(C4)C2)C3)cc1 (stereo unspecified)
inactive

Same lookup for Cc1ccc(S(=O)(=O)NC2C(=O)c3ccccc3C(=O)C2n2ccnc2)cc1 (stereo unspecified) , please.
inactive

Again, but for COC(=O)C1Cc2c([nH]c3ccccc23)C(C2CCCCC2)N1 (stereo unspecified)
inactive

Now consider CCOC(=O)/C(C#N)=C1\c2c([nH]c(=S)[nH]c2=O)Oc2ccc3ccccc3c21 .
active

Next: O=C1NCC2=C1CCC1c3ccccc3CCN21 (stereo unspecified)
inactive

Provenance of the data: ChEMBL document CHEMBL1201862
